# experimental-target: Fatty-acid amide hydrolase 1 (Homo sapiens, UniProt O00519)
# Sequence (O00519 whole entry): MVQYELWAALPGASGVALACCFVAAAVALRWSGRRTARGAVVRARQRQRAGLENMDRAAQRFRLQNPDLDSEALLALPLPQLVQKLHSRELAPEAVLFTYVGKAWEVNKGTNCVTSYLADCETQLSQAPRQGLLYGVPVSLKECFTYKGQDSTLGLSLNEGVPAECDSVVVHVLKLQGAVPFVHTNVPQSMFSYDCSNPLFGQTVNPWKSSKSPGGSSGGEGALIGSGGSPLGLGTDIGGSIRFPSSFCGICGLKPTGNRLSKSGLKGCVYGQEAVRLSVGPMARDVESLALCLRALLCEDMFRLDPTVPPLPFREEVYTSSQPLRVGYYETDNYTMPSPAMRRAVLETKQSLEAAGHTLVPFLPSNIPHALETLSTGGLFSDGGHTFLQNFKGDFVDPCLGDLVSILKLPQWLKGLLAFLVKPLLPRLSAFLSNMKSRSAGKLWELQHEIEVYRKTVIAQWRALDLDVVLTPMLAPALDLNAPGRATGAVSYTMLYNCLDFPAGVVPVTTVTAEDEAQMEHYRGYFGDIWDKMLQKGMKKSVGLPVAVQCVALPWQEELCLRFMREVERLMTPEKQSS
# experiment-summary: Inhibition of human FAAH expressed in HEK293 cells using arachadonyl 7-amino 4-methyl coumarin amide as substrate by fluorimetric assay
# Format: cell-based
pIC50: −log10 of the molar value.
Binary classification by pIC50, with 7 as an inclusive lower bound for fulfilled; all other cases are not fulfilled.

Inquiry: pIC50 >= 7 for Cn1ccc2cc(-c3ccc4oc(Nc5ccncc5)nc4c3)ccc21 ?
Reply text: not fulfilled

Inquiry: Hi, just wondering whether c1ccc(-c2ccc3oc(NC4CCCCC4)nc3c2)cc1 shows pIC50 of 7 or higher.
Reply text: not fulfilled

Inquiry: Has Cn1ccc2cc(-c3ccc4oc(Cc5ccccc5)nc4c3)ccc21 a recorded pIC50 greater than or equal to 7?
Reply text: not fulfilled

Inquiry: Does COc1cccc(-c2ccc3oc(N4Cc5ccccc5C4)nc3c2)c1 have a reported pIC50 of at least 7?
Reply text: fulfilled

Inquiry: Exam item: decide whether the reported pIC50 for Cn1ccc2cc(-c3ccc4oc(N5CCOCC5)nc4c3)ccc21 is at least 7.
Reply text: not fulfilled

Inquiry: API: above_or_equal(metric=pIC50, cutoff=7) for item CNc1nc2cc(-c3ccc4c(ccn4C)c3)ccc2o1
Reply text: not fulfilled

Inquiry: Is the recorded value of pIC50 equal to or greater than 7 for this compound? COc1ccc(-c2ccc3oc(NC4CCCCC4)nc3c2)cc1C
Reply text: not fulfilled

Inquiry: Quick check, pIC50 >= 7? Cn1ccc2cc(-c3ccc4oc(Nc5ccccn5)nc4c3)ccc21
Reply text: not fulfilled

Inquiry: I'd appreciate it if you could say whether c1cc2c(ccn2C2COC2)cc1-c1ccc2oc(NC3CCCCC3)nc2c1 has pIC50 at least equal to 7.
Reply text: not fulfilled

Inquiry: // inclusive: pIC50 at least 7? input: CCn1ccc2cc(-c3ccc4oc(NC5CCCCC5)nc4c3)ccc21
Reply text: not fulfilled

Inquiry: Is reported pIC50 greater than or equal to 7 here: Cn1ncc2cc(-c3ccc4oc(N5Cc6ccccc6C5)nc4c3)ccc21
Reply text: fulfilled

====

# experimental-target: Fatty-acid amide hydrolase 1 (Homo sapiens)
# experiment-summary: Inhibition of human FAAH expressed in HEK293 cells using arachadonyl 7-amino 4-methyl coumarin amide as substrate by fluorimetric assay
# Type: cell-based
metric: IC50

Inquiry: Send back Fatty-acid amide hydrolase 1 (Homo sapiens) IC50 of Cn1ccc2cc(-c3ccc4oc(N5CCNCC5)nc4c3)ccc21 only.
Reply text: > 1 µM

Inquiry: Give reported IC50 for c1cnc2ccc(-c3ccc4oc(NC5CCCCC5)nc4c3)cc2c1 (Fatty-acid amide hydrolase 1 (Homo sapiens))
Reply text: > 1 µM

Inquiry: Specify the recorded IC50 for c1cc2cc(-c3ccc4oc(NC5CCCCC5)nc4c3)cnc2[nH]1 , system: Fatty-acid amide hydrolase 1 (Homo sapiens).
Reply text: > 1 µM
